Measured values drawn from patent US12263248B2 for this set.

experiment: Encapsulation efficiency of RNA (QUANT-IT RIBOGREEN RNA assay); assay type: physicochemical; conditions: Table 1B; formulated with hEPO mRNA
TEST READOUT: EE (%)

>  <COMPOUND>
CCCCCCCCCOC(=O)CCCCCCCN(CCO)CCCCCCCC(=O)OC(CCCCCCCC)CCCCCCCC

>  <RESULT>
96.95

$$$$
>  <COMPOUND>
CCCCCCCCCOC(=O)CCCCCCCN(CCO)CCCCCC(=O)OC1CCC(CCCCC)CC1 (stereo not shown)

>  <RESULT>
76.3

$$$$
>  <COMPOUND>
CCCCCCCCCOC(=O)CCCCCCCN(CCCCCCCC(=O)OC(CCCCCCCC)CCCCCCCC)CCCN/C(=N/[N+](=O)[O-])NC

>  <RESULT>
97.3

$$$$
>  <COMPOUND>
CCCCCCCCC(CCCCCCCC)OC(=O)CCCCCCCN(CCO)CCCCCCCCCC(=O)OCCCCCCC

>  <RESULT>
93.9

$$$$
>  <COMPOUND>
CCCCCCCCCOC(=O)CCCCCCCN(CCCCCCCC(=O)OC(CCCCCCCC)CCCCCCCC)CCCNC(=O)NC

>  <RESULT>
96.40

$$$$
>  <COMPOUND>
CCCCCCCCCOC(=O)CCCCCCCN(CCO)CCCCCCCOC(=O)C(CCCCCCCC)CCCCCCCC

>  <RESULT>
96.32

$$$$
>  <COMPOUND>
CCCCCCCCCOC(=O)CCCCCCCN(CCCCCCCC(=O)OC(CCCCCCCC)CCCCCCCC)CCCN/C(=N/S(C)(=O)=O)N(C)C

>  <RESULT>
97.6

$$$$

----------
Size (nm) values for the molecules below.
assay: Particle size and polydispersity index of nanoparticle compositions (Zetasizer Nano ZS); assay type: physicochemical; details: Table 1A; lipid:DSPC:cholesterol:PEG-DMG 50:10:38.5:1.5 mol %

>  <MOLECULE>
CCCCCCCCCCCOC(=O)CCCCCN(CCO)CCCCCC(=O)OC(CCCCCCCCCC)CCCCCCCCCC

>  <Size (nm)>
69.6 nm

$$$$
>  <MOLECULE>
CCCCCCCCCOC(=O)CCCCCCCN(CCCCCCCC(=O)OC(CCCCCCCC)CCCCCCCC)C(CO)CO

>  <Size (nm)>
68.1 nm

$$$$
>  <MOLECULE>
CCCCCCCCC(CCCCCCCC)OC(=O)CCCCCCCN(CCO)C(C)CCCCCCCCOC(=O)CCCCCCC (stereo not shown)

>  <Size (nm)>
67.6 nm

$$$$
>  <MOLECULE>
CCCCCCCCC(CCCCCCCC)OC(=O)CCCCCCCN(CCO)CCCC(=O)OCCCC

>  <Size (nm)>
148.8 nm

$$$$
>  <MOLECULE>
CCCCCCCCC(C)OC(=O)CCCCCCCN(CCO)CCCCCCCC(=O)OC(CCCCCCCC)CCCCCCCC (stereo not shown)

>  <Size (nm)>
82.3 nm

$$$$
>  <MOLECULE>
CCCCC/C=C\C/C=C\CCCCCCCCN(CCO)CCCCCCCC(=O)OCCCCCCCCC

>  <Size (nm)>
140.4 nm

$$$$
>  <MOLECULE>
CCCCCCCCCOC(=O)CCCCCCCN(CCCCCCCC(=O)OC(CCCCCCCC)CCCCCCCC)CCCNC(=O)OC

>  <Size (nm)>
78.7 nm

$$$$
